Target: UniProt P35372
Sequence (P35372 whole entry): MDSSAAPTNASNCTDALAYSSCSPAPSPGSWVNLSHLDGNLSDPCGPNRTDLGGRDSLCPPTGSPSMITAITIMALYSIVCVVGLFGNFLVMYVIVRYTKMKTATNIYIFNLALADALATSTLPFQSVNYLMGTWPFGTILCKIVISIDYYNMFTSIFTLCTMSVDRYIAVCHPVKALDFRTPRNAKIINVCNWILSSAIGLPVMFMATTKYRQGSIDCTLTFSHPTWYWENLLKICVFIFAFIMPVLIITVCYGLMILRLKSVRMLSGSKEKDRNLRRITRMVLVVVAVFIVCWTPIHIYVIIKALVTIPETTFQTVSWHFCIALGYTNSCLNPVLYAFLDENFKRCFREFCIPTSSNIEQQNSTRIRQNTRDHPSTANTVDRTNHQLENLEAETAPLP
Class assignment keyed on Ki, ranges label 0 = under 0.2 nM, label 1 = from 0.2 nM up to 7 nM, label 2 = 7 nM and over

Query: Class? Entry: CC1C2Cc3ccc(C(N)=O)cc3C1(C)CCN2C (configuration not stated)
Response: label 1

Query: Class? Entry: C=CCN1CC[C@]23c4c5ccc(O)c4O[C@H]2[C@@H](O)C=C[C@H]3[C@H]1C5 [NALORPHINE]
Response: label 0

Query: Class? Entry: NC(=O)c1ccc2c3c1O[C@H]1[C@H](O)CC[C@@]4(O)[C@@H](C2)N(CC2CC2)CC[C@]314
Response: label 1

Query: Class? Entry: C[C@H]1[C@@H]2Cc3ccc(O)cc3[C@]1(C)CCN2C [METAZOCINE]
Response: label 1

Query: Class? Entry: CC1C2Cc3ccc(C(N)=O)cc3C1(C)CCN2CCc1ccccc1 (configuration not stated)
Response: label 0

Query: Class? Entry: CN(C)C[C@H]1CCCC[C@]1(O)c1cccc(C(N)=O)c1 (relative stereo)
Response: label 2

Query: Class? Entry: C=CCN1CC[C@]23c4c5ccc(C(N)=O)c4O[C@@H]2[C@@H](O)C=C[C@H]3[C@H]1C5
Response: label 2

Query: Class? Entry: NC(=O)c1ccc2c3c1O[C@H]1C4NC5C(C[C@@]6(O)[C@H]7Cc8ccc(C(N)=O)c9c8[C@@]6(CCN7CC6CC6)[C@H]5O9)C4C[C@@]4(O)[C@@H](C2)N(CC2CC2)CC[C@]314 (some centres not stated)
Response: label 2

Query: Class? Entry: C=C1CC[C@@]2(O)[C@H]3Cc4ccc(C(N)=O)c5c4[C@@]2(CCN3CC2CC2)[C@H]1O5
Response: label 1

Query: Class? Entry: NC(=O)c1ccc2c(c1)[C@@]13CCCC[C@@]1(O)[C@@H](C2)N(CC1CCC1)CC3
Response: label 0
